Molecular target: VcAer2 [165–678]
Assay: O2 and CO titrations of purified VcAer2 [165–678]
Details: read-out: Kd(CO)
QUANTITY: Kd (nM)
Your answer should be a plain number; it is taken to be in nM.

Ask: Entry [C-]#[O+] [CO, carbon monoxide] needs its Kd filled in; supply it.
Result: 2000
